tested on: Escherichia coli TOP10; test: shrunken log2 fold change of peptide-encoding DNA abundance (4.5 h post-induction vs induction); higher = less antimicrobial activity (less host growth inhibition); settings: time post-induction: 4.5 h; library: site-saturation at positions 5, 18, 19, 20;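 further: peptides expressed intracellularly from a pBAD plasmid library in pooled LB shake-flask culture, induced with 0.3% L-arabinose, DNA abundance read by NGS, three biological replicates, DESeq2 with apeglm shrinkage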
Label scheme for shrunken log2 fold change: low-valued: < -0.3; mid-valued: ≥ -0.3 and < -0.001; high-valued: ≥ -0.001

Task: Band assignment needed for RRIRGRPPRLPRPRPRPNDNPRP please.
Output: high-valued

Task: Band assignment needed for RRIRSRPPRLPRPRPRPNSYPRP please.
Output: mid-valued

Task: Band assignment needed for RRIRARPPRLPRPRPRPCLKPRP please.
Output: mid-valued

Task: Band assignment needed for RRIRMRPPRLPRPRPRPMQLPRP please.
Output: high-valued

Task: Band assignment needed for RRIRPRPPRLPRPRPRPSHCPRP please.
Output: low-valued

Task: Band assignment needed for RRIRQRPPRLPRPRPRPFIKPRP please.
Output: low-valued

Task: Band assignment needed for RRIRCRPPRLPRPRPRPNITPRP please.
Output: low-valued

Task: Band assignment needed for RRIRMRPPRLPRPRPRPFYFPRP please.
Output: low-valued

Task: Band assignment needed for RRIRQRPPRLPRPRPRPFKKPRP please.
Output: high-valued

Task: Band assignment needed for RRIRIRPPRLPRPRPRPWWIPRP please.
Output: mid-valued

Task: Band assignment needed for RRIRYRPPRLPRPRPRPWHMPRP please.
Output: low-valued

Task: Band assignment needed for RRIRDRPPRLPRPRPRPEIFPRP please.
Output: mid-valued

Task: Band assignment needed for RRIRGRPPRLPRPRPRPSDHPRP please.
Output: high-valued
